Below, each entry is listed with its recorded EC50.
target: Glutamate NMDA receptor; Grin1/Grin2c (Rattus norvegicus, UniProt P35439+Q00961); assay: Positive allosteric modulation of recombinant rat GluN1/GluN2C receptor expressed in xenopus laevis oocyte assessed as potentiation of glutamate and glycine-induced current response at holding potential -40mV by two electrode voltage clamp method
Express it in µM; write the number only.

Reference set, count: 3
compound	EC50 [µM]
CC(C)Oc1ccc(OCC2c3ccc(OC(C)C)cc3CCN2C(=S)c2cccc(Cl)c2)cc1 (centres undefined)	0.48
CCOc1ccc(OCC2c3ccc(OC(C)C)cc3CCN2C(=O)c2cccc(Cl)c2)cc1 (centres undefined)	1.8
COc1ccc(OCC2c3ccc(OCC(C)C)cc3CCN2C(=O)c2cccc(Cl)c2)cc1 (centres undefined)	0.9

Please give the documented EC50 of COc1ccc(OCC2c3ccc(N4CCCCC4)cc3CCN2C(=O)c2cccc(Cl)c2)cc1 (centres undefined)
2.3

Indicate the recorded EC50 value for this compound: COc1ccc(OCC2c3ccc(OC4CCCCC4)cc3CCN2C(=O)c2cccc(Cl)c2)cc1 (centres undefined)
1.2

Tell me measured EC50 for CC(C)Oc1ccc2c(c1)CCN(C(=O)c1cccc(Cl)c1)C2COc1ccc(OC(F)(F)F)cc1 (centres undefined) please.
1.5

Determine its reported EC50: CCOc1ccc(OCC2c3ccc(OC(C)C)cc3CCN2C(=O)c2ccc(F)c(Cl)c2)cc1 (centres undefined)
1.3

Dear colleague, please send me the reported EC50 for CCOc1ccc2c(c1)CCN(C(=O)c1cccc(Cl)c1)C2COc1ccc(OC)cc1 (centres undefined) when you can.
2.4

Identify the reported EC50 for the following entry. COc1ccc(OCC2c3ccc(OC(C)C)cc3CCN2C(=O)c2cccc(C(F)(F)F)c2)cc1 (centres undefined)
1.7

###

biological target: Glutamate NMDA receptor; Grin1/Grin2b (Rattus norvegicus) (UniProt P35439+Q00960); experiment: Positive allosteric modulation of recombinant rat GluN1/GluN2B receptor expressed in xenopus laevis oocyte assessed as potentiation of glutamate and glycine-induced current response at 30 uM at holding potential -40mV by two electrode voltage clamp method relative to control
value_type: Activity (%)
Report the figure in % without appending any unit label.

Please review the entries below; each comes with its answer.
compound	experimental_target	Activity, %
COc1ccc(OCC2c3ccc(OC(C)C)cc3CCN2C(=O)c2cccc([N+](=O)[O-])c2)cc1 (centres undefined)	Glutamate NMDA receptor; Grin1/Grin2b (Rattus norvegicus) (UniProt P35439+Q00960)	198
CCOc1ccc(OCC2c3ccc(OC(C)C)cc3CCN2C(=O)c2ccccc2F)cc1 (centres undefined)	Glutamate NMDA receptor; Grin1/Grin2b (Rattus norvegicus) (UniProt P35439+Q00960)	61
CCOc1ccc(OCC2c3ccc(OC(C)C)cc3CCN2C(=O)c2ccc(F)cc2)cc1 (centres undefined)	Glutamate NMDA receptor; Grin1/Grin2b (Rattus norvegicus) (UniProt P35439+Q00960)	118
CCOc1ccc(OCC2c3ccc(OCC)cc3CCN2C(=O)c2cccc(F)c2)cc1 (centres undefined)	Glutamate NMDA receptor; Grin1/Grin2b (Rattus norvegicus) (UniProt P35439+Q00960)	94

Report value only: Activity, Glutamate NMDA receptor; Grin1/Grin2b (Rattus norvegicus) (UniProt P35439+Q00960), CCOc1ccc(OCC2c3ccc(OC(C)C)cc3CCN2C(=O)c2cccc(-c3ccccc3)c2)cc1 (centres undefined)
112

###

Reported Activity is given for each of the following molecules.
target: Glutamate NMDA receptor; Grin1/Grin2c (Rattus norvegicus) (UniProt P35439+Q00961); assay: Positive allosteric modulation of recombinant rat GluN1/GluN2C receptor expressed in xenopus laevis oocyte assessed as potentiation of glutamate and glycine-induced current response at 30 uM at holding potential -40mV by two electrode voltage clamp method relative to control
Number first, unit second: that is the form wanted.

Field: example entries. Status: answers known.
molecule	experimental_target	meas_value
COc1ccc(OCC2c3ccc(OC(C)C)cc3CCN2C(=O)c2cccc([N+](=O)[O-])c2)cc1 (stereo not given)	Glutamate NMDA receptor; Grin1/Grin2c (Rattus norvegicus) (UniProt P35439+Q00961)	337%
COc1ccc(OCC2c3ccc(OC(C)C)cc3CCN2C(=O)c2cccc(N)c2)cc1 (stereo not given)	Glutamate NMDA receptor; Grin1/Grin2c (Rattus norvegicus) (UniProt P35439+Q00961)	105%
CCOc1ccc(OCC2c3ccc(OC(C)C)cc3CCN2C(=O)c2cccc(F)c2)cc1 (stereo not given)	Glutamate NMDA receptor; Grin1/Grin2c (Rattus norvegicus) (UniProt P35439+Q00961)	104%
COc1ccc(OCC2c3ccc(N4CCOCC4)cc3CCN2C(=O)c2cccc(Br)c2)cc1 (stereo not given)	Glutamate NMDA receptor; Grin1/Grin2c (Rattus norvegicus) (UniProt P35439+Q00961)	279%

Would you please give the reported Activity of CCOc1ccc(OCC2c3ccc(OC(C)C)cc3CCN2C(=O)c2ccc(F)c(F)c2)cc1 (stereo not given) with Glutamate NMDA receptor; Grin1/Grin2c (Rattus norvegicus) (UniProt P35439+Q00961)?
145%

###

Reported EC50 values for a set of compounds
target: Glutamate NMDA receptor; Grin1/Grin2b (Rattus norvegicus, UniProt P35439+Q00960); assay: Positive allosteric modulation of recombinant rat GluN1/GluN2B receptor expressed in xenopus laevis oocyte assessed as potentiation of glutamate and glycine-induced current response at holding potential -40mV by two electrode voltage clamp method
Just the number please, in nM, no unit attached.

compound	experimental_target	EC50 [nM]
CCOc1ccc(OC[C@@H]2c3ccc(OC(C)C)cc3CCN2C(=O)c2cccc(F)c2)cc1	Glutamate NMDA receptor; Grin1/Grin2b (Rattus norvegicus, UniProt P35439+Q00960)	4700

Identify the reported EC50 for the following entry. CC(C)Oc1ccc(OCC2c3ccc(OC(C)C)cc3CCN2C(=O)c2cccc(F)c2)cc1 (centres undefined)
7100

Recall and state the measured EC50 for CCOc1ccc(OCC2c3ccc(OC(C)C)cc3CCN2C(=O)c2cccc(C(F)(F)F)c2)cc1 (centres undefined) .
2400

Report measured EC50; entry is COc1ccc(OCC2c3ccc(OCC(C)C)cc3CCN2C(=O)c2cccc(Cl)c2)cc1 (centres undefined)
1500

Consider the compound CCOc1ccc(OCC2c3ccc(OCC(C)C)cc3CCN2C(=O)c2cccc(Cl)c2)cc1 (centres undefined) . State its measured EC50.
1000

Could you please provide reported EC50 for CCC(CC)Oc1ccc2c(c1)CCN(C(=O)c1cccc(Cl)c1)C2COc1ccc(OC)cc1 (centres undefined) ? Thanks!
1800

Assign EC50 to the following record: COc1ccc(OCC2c3ccc(OC(C)C)cc3CCN2C(=O)c2cccc(Br)c2)cc1 (centres undefined)
3900

In one line, give reported EC50 of the entry CC(C)Oc1ccc(OCC2c3ccc(OC(C)C)cc3CCN2C(=O)c2cccc(Cl)c2)cc1 (centres undefined) .
3800

Name the recorded EC50 of the compound listed here: CC(C)Oc1ccc(OCC2c3ccc(OC(C)C)cc3CCN2C(=S)c2cccc(F)c2)cc1 (centres undefined)
670

Quick one: give measured EC50 for CCOc1ccc(OCC2c3ccc(OC(C)C)cc3CCN2C(=O)c2ccc(F)c(Cl)c2)cc1 (centres undefined)
2200

Answer with the recorded EC50 of COc1ccc(OCC2c3ccc(N4CCCCC4)cc3CCN2C(=O)c2cccc(Cl)c2)cc1 (centres undefined) only.
4900

Item CC(C)Oc1ccc(OCC2c3ccc(OC(C)C)cc3CCN2C(=S)c2cccc(C(F)(F)F)c2)cc1 (centres undefined) : provide EC50
270

Give the reported value of EC50 for this record: CCOc1ccc(OCC2c3ccc(OC(C)C)cc3CCN2C(=O)c2cccc(Cl)c2)cc1 (centres undefined)
5300

Identify measured EC50 corresponding to CCOc1ccc(OCC2c3ccc(OC(C)C)cc3CCN2C(=S)c2cccc(F)c2)cc1 (centres undefined)
550

Tell us which EC50 value is on record for CC(C)Oc1ccc(OCC2c3ccc(OC(C)C)cc3CCN2C(=S)c2cccc(Cl)c2)cc1 (centres undefined)
550

Tell me EC50 reported for COc1ccc(OC[C@@H]2c3ccc(OC(C)C)cc3CCN2C(=S)c2cccc(Cl)c2)cc1
320

###

biological target: Ionotropic glutamate receptor NMDA 1/2D (Rattus norvegicus) (UniProt P35439+Q62645); experiment: Positive allosteric modulation of recombinant rat GluN1/GluN2D receptor expressed in xenopus laevis oocyte assessed as potentiation of glutamate and glycine-induced current response at 30 uM at holding potential -40mV by two electrode voltage clamp method relative to control
value_type: Activity

Below, 3 molecules whose answers are already recorded.
molecule	Activity
CCOc1ccc(OCC2c3ccc(OC(C)C)cc3CCN2C(=O)c2ccccc2Cl)cc1 (centres undefined)	79%
CC(C)Oc1ccc2c(c1)CCN(C(=O)c1cccc(Cl)c1)C2COc1ccc(OC(F)(F)F)cc1 (centres undefined)	150%
COc1ccc(OCC2c3ccc(N4CCOCC4)cc3CCN2C(=O)c2cccc(Br)c2)cc1 (centres undefined)	284%

Give reported Activity for COc1cccc(OCC2c3ccc(OC(C)C)cc3CCN2C(=O)c2cccc(Cl)c2)c1 (centres undefined) (Ionotropic glutamate receptor NMDA 1/2D (Rattus norvegicus) (UniProt P35439+Q62645))
125%
